Overview of reported pKi across a group of compounds:
- assayed_target: Recombinant human JAK2 kinase domain protein (Residues 812-1132) (Homo sapiens, UniProt O60674)
- Sequence (O60674 812-1132): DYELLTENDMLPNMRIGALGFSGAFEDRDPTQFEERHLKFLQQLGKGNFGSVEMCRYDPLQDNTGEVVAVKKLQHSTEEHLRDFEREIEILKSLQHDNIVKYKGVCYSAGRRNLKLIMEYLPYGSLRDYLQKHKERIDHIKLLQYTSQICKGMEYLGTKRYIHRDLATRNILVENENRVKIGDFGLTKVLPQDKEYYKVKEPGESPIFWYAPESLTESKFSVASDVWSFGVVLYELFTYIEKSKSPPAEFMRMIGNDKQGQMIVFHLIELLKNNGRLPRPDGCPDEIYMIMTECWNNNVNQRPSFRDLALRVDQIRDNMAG
- assay_details: JAK2 biochemical assay (LabChip mobility shift, Ki)
- study_conditions: Biochem JAK2 Ki
// scale note: pKi = -log10(conc_M); give the bare number

Answered cases to consult:
[[record]]
smiles_notation = "CNC(=O)c1ccc(Oc2ccc(OC(F)F)c(-c3nn(C)cc3NC(=O)c3cnn4cccnc34)c2)cc1"
property_label = "pKi"
measurement = 9.62

[[record]]
smiles_notation = "CCn1cc(NC(=O)c2cnn3cccnc23)c(-c2cc(Oc3cc(F)cc(C4(O)CN(C)C4)c3)ccc2OC(F)F)n1"
property_label = "pKi"
measurement = 9.31


Requested read-out: pKi. Entry: CN(C)C(=O)c1ccc(Oc2ccc(OC(F)F)c(-c3nn(C)cc3NC(=O)c3cnn4cccnc34)c2)cc1 9.62

What would you report for Cn1cc(NC(=O)c2cnn3cccnc23)c(-c2cc(Oc3cn[nH]c3)ccc2OC(F)F)n1 ? 10.15

Then this compound: O=C(Nc1cn(CCN[C@H]2C[C@H](O)C2)nc1-c1cc(Oc2ccccc2)ccc1OC(F)F)c1cnn2cccnc12 9.51

Please do the same for Cn1cc(NC(=O)c2cnn3cccnc23)c(-c2cc(Oc3cccc(CNCCO)c3)ccc2OC(F)F)n1 as well. 9.46

Quick one: CN1CC(CC#N)(n2cc(Oc3ccc(OC(F)F)c(-c4nn(C)cc4NC(=O)c4cnn5cccnc45)c3)cn2)C1 9.18

// repeat for Cn1cc(NC(=O)c2cnn3cccnc23)c(-c2cc(Oc3ccc(CC(=O)N4CCC4)cc3)ccc2OC(F)F)n1 and report 9.77

These data points were gathered from patent US12528812B2.
